Answer each item with its documented Hildebrand δ.
Assay: Hansen and Hildebrand solubility parameters
Answers are plain numbers, in J/mL.

A selection of reference data follows.
MOLECULE | UNITS_LABEL | Hildebrand δ
CCCCOCC1CCCO1 (stereo not shown) [n-butyl THF, 2-(butoxymetyl)tetrahydrofuraan] | J/mL | 18.15
CC1=CC(=O)CC(C)(C)C1 | J/mL | 19.94

Give Hildebrand δ for all molecules that follow.
1. O=C1CCCCC1
2. CCOC(C)=O [Ethyl Acetate]
3. Cc1ccc(C)cc1
4. OCC1CCCO1 (stereo not shown) [THFA TetraHydroFurfurylAlcohol, TetraHydroFurfurylAlcohol]
5. CCCCOC(C)=O [n-butyl acetate]

OUT:
19.56
18.15
17.90
22.09
17.41
